Where do the numbers come from? From paper PMC6854577.

Hi there, I'd appreciate the recorded pKd for every entry that follows.
target: anti-T4 antibody Fab fragment; assay: Native MS (ESI FT-ICR) ligand competition with T2 as low-affinity reference ligand; format: binding, mouse; conditions: 0.1 μM Fab, 20 mM ammonium acetate pH 6.8; ligand and reference ligand (T2) concentrations per Table 1; mean ± SD, 10 replicates of three samples; read-out: Kd
Give bare numbers, as −log10 of the molar value.

CC(C)(c1cc(Br)c(O)c(Br)c1)c1cc(Br)c(O)c(Br)c1: 7.06
CC(C)(c1cc(I)c(O)c(I)c1)c1cc(I)c(O)c(I)c1: 7.96
N[C@@H](Cc1cc(I)c(Oc2cc(I)c(O)c(I)c2)c(I)c1)C(=O)O: 7.54
N[C@@H](Cc1ccc(Oc2ccc(O)cc2)cc1)C(=O)O: 3.89

Now for another entry.
Data point: CC(C)(c1cc(Cl)c(O)c(Cl)c1)c1cc(Cl)c(O)c(Cl)c1 ; pKd = 5.11
